Give BLOOD UREA NITROGEN for every item shown.
- Organism: Rattus norvegicus
- ASSAY_EXPLANATION: DrugMatrix - Regimen: Daily Repeat
- Assay type: toxicity, organism-based, Sprague-Dawley
- Set-up: regimen Daily Repeat, gender Male, age 6-8 weeks
- MEASUREMENT_PARAMETERS: in vivo, po, 1500 mg/kg, 72 h, tissue Plasma, route oral GAVAGE, dose level High, time 3 day, vehicle .5 % CMC
Answer format: numeric, mg/dL implied, no suffix.

Please fill in: BLOOD UREA NITROGEN reported for CC(C)(Sc1cc(C(C)(C)C)c(O)c(C(C)(C)C)c1)Sc1cc(C(C)(C)C)c(O)c(C(C)(C)C)c1 [PROBUCOL] = 14.67

Record summary for O=c1cc(-c2ccccc2)oc2ccc3ccccc3c12 [BETA-NAPHTHOFLAVONE] : reported BLOOD UREA NITROGEN = 11.67

Value of measured BLOOD UREA NITROGEN for the entry Nc1nc2c(c(=O)[nH]1)N(C=O)C(CNc1ccc(C(=O)N[C@@H](CCC(=O)O)C(=O)O)cc1)CN2 (stereo not given in full) [LEUCOVORIN] : 11.33

Reported BLOOD UREA NITROGEN ( `CCOC(=O)[C@H](CCc1ccccc1)N[C@@H](C)C(=O)N1CCC[C@H]1C(=O)O` ) = 34.67

Just so you know, measured BLOOD UREA NITROGEN for C[C@@H](O)[C@H]1C(=O)N2C(C(=O)O)=C(S[C@@H]3CN[C@H](C(=O)N(C)C)C3)[C@H](C)[C@H]12 [MEROPENEM] came out at 13.33

====

- Species: Rattus norvegicus
- ASSAY_EXPLANATION: DrugMatrix - Regimen: Daily Repeat
- Type: toxicity, organism-based, Sprague-Dawley
- Parameters: regimen Daily Repeat, gender Male, age 6-8 weeks
- MEASUREMENT_PARAMETERS: in vivo, po, 0 mg/kg, 72 h, tissue Blood, route oral GAVAGE, dose level Control, time 3 day, vehicle 100 % WATER
MEASURE: ABSOLUTE MONOCYTE (CELLS/uL)
Number in CELLS/uL, nothing else.

Per the record, `CCOC(N)=O` has ABSOLUTE MONOCYTE of 66.17

Per the records, this compound ( `CCCCCCCCCCCCCCCC[n+]1ccccc1.[Br-]` ) has ABSOLUTE MONOCYTE equal to 169

Kindly note the recorded ABSOLUTE MONOCYTE for `CC[C@H]1OC(=O)[C@H](C)[C@@H](O[C@H]2C[C@@](C)(OC)[C@@H](O)[C@H](C)O2)[C@H](C)[C@@H](O[C@@H]2O[C@H](C)C[C@H](N(C)C)[C@H]2O)[C@](C)(O)C[C@@H](C)CN(C)[C@H](C)[C@@H](O)[C@]1(C)O` , which is 72.17

Form field ABSOLUTE MONOCYTE, entry CCN(CC)CC#CCOC(=O)C(O)(c1ccccc1)C1CCCCC1 (centres undefined) : 76

====

- Species on record: Rattus norvegicus
- ASSAY_EXPLANATION: DrugMatrix - Regimen: Daily Repeat
- Type: toxicity, organism-based, Sprague-Dawley
- Design: regimen Daily Repeat, gender Male, age 6-8 weeks
- MEASUREMENT_PARAMETERS: in vivo, po, 0 mg/kg, 120 h, tissue Plasma, route oral GAVAGE, dose level Control, time 5 day, vehicle 100 % SALINE
MEASURE: ALANINE AMINOTRANSFERASE (u/L)
Return type: number; implicit unit u/L.

// recorded ALANINE AMINOTRANSFERASE for Cc1cc(CC(=O)O)n(C)c1C(=O)c1ccc(Cl)cc1 [ZOMEPIRAC] : 56

Per the records, this molecule ( CC(=O)OCC(CCn1cnc2cnc(N)nc21)COC(C)=O [FAMCICLOVIR] ) has ALANINE AMINOTRANSFERASE equal to 49.33

Looking up `CCCc1nn(C)c2c(=O)[nH]c(-c3cc(S(=O)(=O)N4CCN(C)CC4)ccc3OCC)nc12` , I see its ALANINE AMINOTRANSFERASE listed as 49.33

The reported value for Oc1ccccc1O [CATECHOL] in terms of ALANINE AMINOTRANSFERASE is 56

Value source: ChEMBL document CHEMBL3885881
